Test system: Plasmodium falciparum
Test: Antiplasmodial activity against Plasmodium falciparum NF54 erythrocytic stages assessed as reduction in [3H]hypoxanthine incorporation measured after 48 hrs by liquid scintillation counting method
Assay type: functional, organism-based
param class (str): category from IC50; see ranges class A (below 8 nM), class B (8 nM to below 30 nM), class C (30 nM or more)

Please review the following examples before continuing.
compound="CC1(C)C(Cc2ccc(Cl)cc2)C(=[N+]2CCCC2)C=CN1Cc1ccccc1 (racemic)" answer_label="class B"
compound="CC1(C)C(Cc2ccc(C(F)(F)F)cc2)C(=[N+]2CCCC2)C=CN1Cc1ccccc1 (racemic)" answer_label="class B"
compound="CC1(C)C(Cc2c(Cl)cccc2Cl)C(=[N+]2CCCC2)C=CN1Cc1c(Cl)cccc1Cl (racemic)" answer_label="class C"
compound="CC1(C)C(Cc2ccc(Cl)cc2)C(=[N+]2CCCCC2)C=CN1Cc1ccc(Cl)cc1 (racemic)" answer_label="class A"
compound="CC1(C)C(Cc2ccc(Cl)cc2)C(=[N+]2CCCC2)C=CN1Cc1ccc(Cl)cc1 (racemic)" answer_label="class A"
compound="CC1(C)C(Cc2ccccc2)C(=[N+]2CCCCC2)C=CN1Cc1ccccc1 (racemic)" answer_label="class B"

Please indicate the class for CC1(C)C(Cc2c(Cl)cccc2Cl)C(=[N+]2CCCC2)C=CN1Cc1ccc(Cl)cc1 (racemic) based on its IC50.
class A

For this compound, which bin applies? CC1(C)C(Cc2ccc(C(F)(F)F)cc2)C(=[N+]2CCCC2)C=CN1Cc1ccc(C(F)(F)F)cc1 (racemic)
class B

Quick check: band for CC1(C)C(Cc2ccccc2)C(=[N+]2CCCC2)C=CN1Cc1ccc([N+](=O)[O-])cc1 (racemic)
class C

Category of CC1(C)C(Cc2c(Cl)cccc2Cl)C(=[N+]2CCCC2)C=CN1Cc1ccccc1 (racemic) :
class C

Given CC1(C)C(Cc2ccc([N+](=O)[O-])cc2)C(=[N+]2CCCC2)C=CN1Cc1ccccc1 (racemic) , name the class its IC50 places it in.
class C

----------
Recorded selectivity ratio values for a group of molecules are listed next.
Assay: Selectivity index, ratio of IC50 for rat L6 cells to IC50 for Plasmodium falciparum NF54
Assay type: toxicity
Conditions: read-out: Ratio IC50
Lab note: jot the number down without any unit.

Consider the following illustrative entries.
molecule="CC1(C)C(Cc2ccccc2C(F)(F)F)C(=[N+]2CCCC2)C=CN1Cc1ccccc1 (racemic)" observation_type="selectivity ratio" measured_number=912
molecule="CC1(C)C(Cc2ccc(C(F)(F)F)cc2)C(=[N+]2CCCC2)C=CN1Cc1ccccc1 (racemic)" observation_type="selectivity ratio" measured_number=3300
molecule="CC1(C)C(Cc2ccccc2)C(=[N+]2CCCC2)C=CN1Cc1ccc(Cl)cc1 (racemic)" observation_type="selectivity ratio" measured_number=1260
molecule="CC1(C)C(Cc2ccccc2)C(=[N+]2CCCC2)C=CN1Cc1ccc([N+](=O)[O-])cc1 (racemic)" observation_type="selectivity ratio" measured_number=2320
molecule="CC1(C)C(Cc2ccc([N+](=O)[O-])cc2)C(=[N+]2CCCC2)C=CN1Cc1ccccc1 (racemic)" observation_type="selectivity ratio" measured_number=4800
molecule="CC1(C)C(Cc2ccccc2)C(=[N+]2CCCCC2)C=CN1Cc1ccccc1 (racemic)" observation_type="selectivity ratio" measured_number=1640
molecule="CC1(C)C(Cc2ccc(Cl)cc2)C(=[N+]2CCCC2)C=CN1Cc1ccccc1 (racemic)" observation_type="selectivity ratio" measured_number=5260
molecule="CC(C)(C)c1ccc(CC2C(=[N+]3CCCC3)C=CN(Cc3ccccc3)C2(C)C)cc1 (racemic)" observation_type="selectivity ratio" measured_number=31.3
molecule="CC1(C)C(Cc2ccc(Cl)cc2Cl)C(=[N+]2CCCC2)C=CN1Cc1ccccc1 (racemic)" observation_type="selectivity ratio" measured_number=1450
molecule="CC(C)c1ccc(CC2C(=[N+]3CCCC3)C=CN(Cc3ccccc3)C2(C)C)cc1 (racemic)" observation_type="selectivity ratio" measured_number=64.4

Specify measured selectivity ratio for CC1(C)C(Cc2c(Cl)cccc2Cl)C(=[N+]2CCCC2)C=CN1Cc1ccc(Cl)cc1 (racemic) .
1260

Could you please provide reported selectivity ratio for CC1(C)C(Cc2ccc(Cl)cc2)C(=[N+]2CCCC2)C=CN1Cc1ccc(Cl)cc1 (racemic) ? Thanks!
8980

For the molecule CC1(C)C(Cc2c(Cl)cccc2Cl)C(=[N+]2CCCC2)C=CN1Cc1c(Cl)cccc1Cl (racemic) , give its measured selectivity ratio value.
23.9
